# credit: ChEMBL document CHEMBL3091434

species on record: Homo sapiens; test: Selectivity ratio of EC50 for human recombinant mu opioid receptor to EC50 for human recombinant delta opioid receptor
Use true when the recorded Ratio EC50 is no lower than 70; use false when it is lower.

# smiles.input, group
data = [
    ("Oc1ccc2c(c1)[C@]13CCN(CCF)[C@H](C2)[C@]1(O)Cc1cc2ccccc2nc1C3", "true"),
    ("CCN1CC[C@]23Cc4nc5ccccc5cc4C[C@@]2(O)[C@H]1Cc1ccc(O)cc13", "true"),
    ("C[C@H](O)CN1CC[C@]23Cc4nc5ccccc5cc4C[C@@]2(O)[C@H]1Cc1ccc(O)cc13", "false"),
    ("CN1CC[C@]23Cc4nc5ccccc5cc4C[C@@]2(O)[C@H]1Cc1ccc(O)cc13", "true"),
]

###

target: Delta-type opioid receptor (Homo sapiens, UniProt P41143); assay: Agonist activity at human recombinant delta opioid receptor expressed in CHO cells after 2 hrs by [35S]GTPgammaS binding assay
Sequence (P41143 whole entry): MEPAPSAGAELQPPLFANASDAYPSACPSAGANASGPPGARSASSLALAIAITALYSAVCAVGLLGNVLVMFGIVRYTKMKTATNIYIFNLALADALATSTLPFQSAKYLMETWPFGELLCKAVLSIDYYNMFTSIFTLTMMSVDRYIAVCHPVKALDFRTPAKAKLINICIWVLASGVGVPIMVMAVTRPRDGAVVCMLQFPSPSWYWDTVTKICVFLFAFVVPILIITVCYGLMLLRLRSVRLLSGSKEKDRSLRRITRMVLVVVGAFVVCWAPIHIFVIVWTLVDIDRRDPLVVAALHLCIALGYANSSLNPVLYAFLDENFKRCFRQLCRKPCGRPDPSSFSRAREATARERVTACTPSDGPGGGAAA
pEC50: −log10 of the molar value.
Measured pEC50, listed per entry for reference.

# smiles.input, subject.of.test, pEC50
records = [
    ("C[C@@H](O)CN1CC[C@]23Cc4nc5ccccc5cc4C[C@@]2(O)[C@H]1Cc1ccc(O)cc13", "Delta-type opioid receptor (Homo sapiens, UniProt P41143)", 8.18),
    ("C[C@H](O)CN1CC[C@]23Cc4nc5ccccc5cc4C[C@@]2(O)[C@H]1Cc1ccc(O)cc13", "Delta-type opioid receptor (Homo sapiens, UniProt P41143)", 8.79),
    ("Oc1ccc2c(c1)[C@]13CCN(CC(F)(F)F)[C@H](C2)[C@]1(O)Cc1cc2ccccc2nc1C3", "Delta-type opioid receptor (Homo sapiens, UniProt P41143)", 8.22),
    ("CCCN1CC[C@]23Cc4nc5ccccc5cc4C[C@@]2(O)[C@H]1Cc1ccc(O)cc13", "Delta-type opioid receptor (Homo sapiens, UniProt P41143)", 8.91),
    ("Oc1ccc2c(c1)[C@]13CCN(Cc4ccco4)[C@H](C2)[C@]1(O)Cc1cc2ccccc2nc1C3", "Delta-type opioid receptor (Homo sapiens, UniProt P41143)", 8.71),
    ("CCOCCN1CC[C@]23Cc4nc5ccccc5cc4C[C@@]2(O)[C@H]1Cc1ccc(O)cc13", "Delta-type opioid receptor (Homo sapiens, UniProt P41143)", 8.60),
    ("Oc1ccc2c(c1)[C@]13CCN(C[C@@H]4CCCO4)[C@H](C2)[C@]1(O)Cc1cc2ccccc2nc1C3", "Delta-type opioid receptor (Homo sapiens, UniProt P41143)", 8.87),
    ("Oc1ccc2c(c1)[C@]13CCN(CC(F)F)[C@H](C2)[C@]1(O)Cc1cc2ccccc2nc1C3", "Delta-type opioid receptor (Homo sapiens, UniProt P41143)", 8.71),
    ("CN1CC[C@]23Cc4nc5ccccc5cc4C[C@@]2(O)[C@H]1Cc1ccc(O)cc13", "Delta-type opioid receptor (Homo sapiens, UniProt P41143)", 9.28),
    ("Oc1ccc2c(c1)[C@]13CCN(C[C@H]4CCCO4)[C@H](C2)[C@]1(O)Cc1cc2ccccc2nc1C3", "Delta-type opioid receptor (Homo sapiens, UniProt P41143)", 8.48),
]

###

Measured pEC50, listed per entry for reference.
target: Kappa-type opioid receptor (Homo sapiens, UniProt P41145); assay: Agonist activity at human recombinant kappa opioid receptor expressed in CHO cells after 2 hrs by [35S]GTPgammaS binding assay
Sequence (P41145 whole entry): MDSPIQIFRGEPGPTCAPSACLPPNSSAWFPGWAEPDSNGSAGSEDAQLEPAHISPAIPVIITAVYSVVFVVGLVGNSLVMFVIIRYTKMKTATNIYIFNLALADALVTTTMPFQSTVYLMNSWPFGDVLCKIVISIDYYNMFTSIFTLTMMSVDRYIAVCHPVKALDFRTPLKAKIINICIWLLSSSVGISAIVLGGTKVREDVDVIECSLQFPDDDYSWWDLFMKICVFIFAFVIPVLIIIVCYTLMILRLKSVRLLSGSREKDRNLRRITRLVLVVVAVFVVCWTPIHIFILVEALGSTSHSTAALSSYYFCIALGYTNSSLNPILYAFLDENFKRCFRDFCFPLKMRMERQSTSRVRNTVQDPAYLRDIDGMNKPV
pEC50: −log10 of the molar value.

# smiles.input, pEC50
data = [
    ("Oc1ccc2c(c1)[C@]13CCN(Cc4ccco4)[C@H](C2)[C@]1(O)Cc1cc2ccccc2nc1C3", "< 6.00"),
    ("Oc1ccc2c(c1)[C@]13CCN(C[C@H]4CCCO4)[C@H](C2)[C@]1(O)Cc1cc2ccccc2nc1C3", "< 6.00"),
    ("CCOCCCN1CC[C@]23Cc4nc5ccccc5cc4C[C@@]2(O)[C@H]1Cc1ccc(O)cc13", "< 6.00"),
]

###

assay: Selectivity ratio of Ki for kappa opioid receptor in guinea pig cerebellum to Ki for delta opioid receptor in mouse whole brain membranes without cerebellum; format: cell membranes

# smiles.input, Ratio Ki
rows = [
    ("Oc1ccc2c(c1)[C@]13CCN(C[C@@H]4CCCO4)[C@H](C2)[C@]1(O)Cc1cc2ccccc2nc1C3", 5.14),
    ("Oc1ccc2c(c1)[C@]13CCN(CC4(O)CC4)[C@H](C2)[C@]1(O)Cc1cc2ccccc2nc1C3", 3.49),
    ("CN1CC[C@]23Cc4nc5ccccc5cc4C[C@@]2(O)[C@H]1Cc1ccc(O)cc13", 960),
    ("Oc1ccc2c(c1)[C@]13CCN(C[C@H]4CCCO4)[C@H](C2)[C@]1(O)Cc1cc2ccccc2nc1C3", 234),
    ("COCCN1CC[C@]23Cc4nc5ccccc5cc4C[C@@]2(O)[C@H]1Cc1ccc(O)cc13", 60.8),
    ("COCCCN1CC[C@]23Cc4nc5ccccc5cc4C[C@@]2(O)[C@H]1Cc1ccc(O)cc13", 46.7),
    ("Oc1ccc2c(c1)[C@]13CCN(CC4CC4)[C@H](C2)[C@]1(O)Cc1cc2ccccc2nc1C3", 13.6),
    ("C[C@H](O)CN1CC[C@]23Cc4nc5ccccc5cc4C[C@@]2(O)[C@H]1Cc1ccc(O)cc13", 203),
    ("Oc1ccc2c(c1)[C@]13CCN(Cc4ccco4)[C@H](C2)[C@]1(O)Cc1cc2ccccc2nc1C3", 104),
    ("Oc1ccc2c(c1)[C@]13CCN(CCF)[C@H](C2)[C@]1(O)Cc1cc2ccccc2nc1C3", 278),
    ("OCCN1CC[C@]23Cc4nc5ccccc5cc4C[C@@]2(O)[C@H]1Cc1ccc(O)cc13", 190),
    ("C[C@@H](O)CN1CC[C@]23Cc4nc5ccccc5cc4C[C@@]2(O)[C@H]1Cc1ccc(O)cc13", 11.3),
    ("COCCCCN1CC[C@]23Cc4nc5ccccc5cc4C[C@@]2(O)[C@H]1Cc1ccc(O)cc13", 279),
    ("Oc1ccc2c(c1)[C@]13CCN(CC(F)F)[C@H](C2)[C@]1(O)Cc1cc2ccccc2nc1C3", 778),
    ("CCCN1CC[C@]23Cc4nc5ccccc5cc4C[C@@]2(O)[C@H]1Cc1ccc(O)cc13", 159),
]

###

species on record: Mus musculus; experiment: Selectivity ratio of Ki for mu opioid receptor in mouse whole brain membranes without cerebellum to Ki for delta opioid receptor in mouse whole brain membranes without cerebellum; format: cell membranes

# smiles.input, Ratio Ki
rows = [
    ("Oc1ccc2c(c1)[C@]13CCN(C[C@H]4CCCO4)[C@H](C2)[C@]1(O)Cc1cc2ccccc2nc1C3", 973),
    ("CCN1CC[C@]23Cc4nc5ccccc5cc4C[C@@]2(O)[C@H]1Cc1ccc(O)cc13", 384),
    ("Oc1ccc2c(c1)[C@]13CCN(CC4CC4)[C@H](C2)[C@]1(O)Cc1cc2ccccc2nc1C3", 24.8),
    ("CCOCCCN1CC[C@]23Cc4nc5ccccc5cc4C[C@@]2(O)[C@H]1Cc1ccc(O)cc13", 207),
    ("CN1CC[C@]23Cc4nc5ccccc5cc4C[C@@]2(O)[C@H]1Cc1ccc(O)cc13", 134),
    ("C[C@H](O)CN1CC[C@]23Cc4nc5ccccc5cc4C[C@@]2(O)[C@H]1Cc1ccc(O)cc13", 1440),
    ("CCOCCN1CC[C@]23Cc4nc5ccccc5cc4C[C@@]2(O)[C@H]1Cc1ccc(O)cc13", 210),
]
